Taken from patent US6664393B2.

system under test: factor VIIa/tissue factor (Homo sapiens, UniProt P08709)
Construct: 25 μl human factor VIIa and TF (5 nM and 10 nM, respective final concentrations)
Sequence (P08709 61-212): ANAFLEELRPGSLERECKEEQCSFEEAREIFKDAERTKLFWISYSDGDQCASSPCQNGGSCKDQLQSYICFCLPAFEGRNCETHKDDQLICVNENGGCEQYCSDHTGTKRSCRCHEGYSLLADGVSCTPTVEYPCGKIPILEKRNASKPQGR
Sequence (P08709 213-466): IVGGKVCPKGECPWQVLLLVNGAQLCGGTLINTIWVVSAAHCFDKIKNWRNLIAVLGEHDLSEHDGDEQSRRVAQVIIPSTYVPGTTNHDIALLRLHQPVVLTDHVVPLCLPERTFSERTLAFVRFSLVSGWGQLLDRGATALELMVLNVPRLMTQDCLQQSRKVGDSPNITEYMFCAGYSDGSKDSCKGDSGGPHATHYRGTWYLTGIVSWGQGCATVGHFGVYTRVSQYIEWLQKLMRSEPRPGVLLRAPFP
Sequence (P13726 33-295, further chain): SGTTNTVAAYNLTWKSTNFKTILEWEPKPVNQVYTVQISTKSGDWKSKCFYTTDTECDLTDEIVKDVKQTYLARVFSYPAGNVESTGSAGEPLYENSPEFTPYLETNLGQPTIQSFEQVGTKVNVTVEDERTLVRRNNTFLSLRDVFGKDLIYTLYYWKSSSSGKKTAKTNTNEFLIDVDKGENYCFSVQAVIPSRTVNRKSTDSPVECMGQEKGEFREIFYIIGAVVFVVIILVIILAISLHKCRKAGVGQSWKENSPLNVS
method summary: Factor VIIa assay (chromogenic, substrate S-2288)
Format: biochemical
protocol conditions: inhibition constant for inhibition of factor VIIa; 5 nM factor VIIa and 10 nM TF, 25° C., 500 μM substrate; read-out: Ki (FVIIa)
Attribute: pKi
Reminder that pKi means the negative base-10 logarithm of the concentration expressed in mol/L.

- record smiles: "N=C(N)NCCC[C@H](NC(=O)c1ccc(NC(=O)CCC(=O)O)c(OCCc2ccc(Cl)cc2Cl)c1)C(N)=O"
  pKi: 4.38
- record smiles: "N=C(N)NCCC[C@H](NC(=O)c1cc(O)c(Br)c(OCCc2ccc(Cl)cc2Cl)c1)C(N)=O"
  pKi: 4.24

Attention now turns to another entry.
What pKi value was documented for this compound, `N=C(N)NCCC[C@H](NC(=O)c1ccc([N+](=O)[O-])c(OCCc2ccc(Cl)cc2Cl)c1)C(N)=O` ?
3.73

====

Measured Ki accompanies every entry in the list below.
system under test: human factor Xa (Homo sapiens, UniProt P00742)
Construct: purchased Enzyme Research Laboratories, Inc; South Bend, Ind
Sequence (P00742 235-488 limits assumed): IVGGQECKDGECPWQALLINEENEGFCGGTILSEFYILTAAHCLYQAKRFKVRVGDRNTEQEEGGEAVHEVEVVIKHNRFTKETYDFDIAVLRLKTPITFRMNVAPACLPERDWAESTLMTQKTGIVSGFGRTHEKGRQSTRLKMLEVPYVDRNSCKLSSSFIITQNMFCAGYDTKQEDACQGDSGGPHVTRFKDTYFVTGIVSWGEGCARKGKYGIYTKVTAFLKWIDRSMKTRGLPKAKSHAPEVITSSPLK
Sequence (P00742 41-179 limits assumed): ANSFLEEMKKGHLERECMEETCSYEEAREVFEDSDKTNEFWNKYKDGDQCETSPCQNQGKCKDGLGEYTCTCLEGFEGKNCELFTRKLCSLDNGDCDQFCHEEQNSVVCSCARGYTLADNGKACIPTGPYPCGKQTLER
method summary: Factor Xa assay (chromogenic, substrate S-2765)
Type: biochemical
Kindly write the number and append the unit.

Please give the measured Ki for this compound: CCCOC(=O)[C@H](CCCNC(=N)N)NC(=O)c1cc(O)c(Br)c(OCCc2ccc(Cl)cc2Cl)c1 [Example 47]
21 nM

Reported Ki, compound CCCOC(=O)[C@H](CCCNC(=N)N)NC(=O)c1ccc(OC)c(OCCc2ccc(Cl)cc2Cl)c1 [Example 50] : ____
729 nM

Ki for N=C(N)NCCC[C@H](NC(=O)c1cc(OCCc2ccc(Cl)cc2Cl)c2ccccc2n1)C(N)=O [Example 34] ?
750 nM

// returns reported Ki for input N=C(N)NCCC[C@H](NC(=O)c1ccc([N+](=O)[O-])c(OCCc2ccc(Cl)cc2)c1)C(N)=O [Example 11]
192 nM

====

Parameter: pKi. Scope: all listed entries.
system under test: factor VIIa/tissue factor (Homo sapiens)
Construct: 25 μl human factor VIIa and TF (5 nM and 10 nM, respective final concentrations)
method summary: Factor VIIa assay (chromogenic, substrate S-2288)
Type: biochemical
protocol conditions: inhibition constant for inhibition of factor VIIa; 5 nM factor VIIa and 10 nM TF, 25° C., 500 μM substrate; read-out: Ki (FVIIa)
Keep in mind that pKi stands for -log10 of concentration in molar terms.

- compound: "N=C(N)NCCC[C@H](NC(=O)c1cc(OCCc2ccc(Cl)cc2Cl)c2ccccc2n1)C(N)=O [Example 34]"
  quantitative readout: 5.01

Return reported pKi; argument: Cc1c(O)cc(C(=O)N[C@@H](CCCNC(=N)N)C(N)=O)cc1OCCc1ccc(Cl)cc1Cl [Example 6]
5.12

====

system under test: factor VIIa/tissue factor (Homo sapiens, UniProt P08709)
Construct: 25 μl human factor VIIa and TF (5 nM and 10 nM, respective final concentrations)
method summary: Factor VIIa assay (chromogenic, substrate S-2288)
Format: biochemical
recorded metric: pKi
Keep it numeric: pKi is minus log10 of the concentration in mol/L.

Which value of pKi has been reported for `Cc1cc(C)c(CCOc2cc(C(=O)N[C@@H](CCCNC(=N)N)C(N)=O)nc3ccccc23)c(C)c1` in the records?
4.89

====

system under test: human factor Xa (Homo sapiens)
Construct: purchased Enzyme Research Laboratories, Inc; South Bend, Ind
method summary: Factor Xa assay (chromogenic, substrate S-2765)
Format: biochemical
protocol conditions: inhibition constant for inhibition of factor Xa; 25° C., 0.5 nM enzyme, 140 μM substrate; read-out: Ki (FXa)
recorded metric: pKi
Kindly note that pKi refers to -log10 of the concentration in mol/L and answer with the value alone.

- record smiles: "N=C(N)NCCC[C@H](NC(=O)c1ccc(N)c(OCCc2ccc(Cl)cc2Cl)c1)C(N)=O"
  system under test: "human factor Xa (Homo sapiens)"
  pKi: 7.12

Any idea what its pKi is? The compound is `CC(=O)Nc1ccc(C(=O)N[C@@H](CCCNC(=N)N)C(N)=O)cc1OCCc1ccc(Cl)cc1Cl`
6.17

====

system under test: human factor Xa (Homo sapiens)
Construct: purchased Enzyme Research Laboratories, Inc; South Bend, Ind
method summary: Factor Xa assay (chromogenic, substrate S-2765)
Format: biochemical
recorded metric: Ki (nM)
Please give a number only; it is taken to be in nM.

Here are 10 compounds together with their reported answers.
- record smiles: "CN(C)C(=O)[C@H](CCCNC(=N)N)NC(=O)c1cc(O)c(Br)c(OCCc2ccc(Cl)cc2Cl)c1"
  units of measure: "nM"
  Ki: 31
- record smiles: "N=C(N)NCCC[C@H](NC(=O)c1cc(O)c(Br)c(OCCc2ccc(Cl)cc2Cl)c1)C(N)=O"
  units of measure: "nM"
  Ki: 18
- record smiles: "Cc1c(O)cc(C(=O)N[C@@H](CCCNC(=N)N)C(N)=O)cc1OCCc1ccc(Cl)cc1Cl"
  units of measure: "nM"
  Ki: 38
- record smiles: "N=C(N)NCCC[C@H](NC(=O)c1ccc([N+](=O)[O-])c(OCCc2ccc(Cl)cc2Cl)c1)C(N)=O"
  units of measure: "nM"
  Ki: 48
- record smiles: "Cc1cc(C)c(CCOc2cc(C(=O)N[C@@H](CCCNC(=N)N)C(N)=O)nc3ccccc23)c(C)c1"
  units of measure: "nM"
  Ki: 13000
- record smiles: "N=C(N)NCCC[C@H](NC(=O)c1cc(O)c(Br)c(OCCc2ccc(Cl)cc2Cl)c1)C(=O)NCc1cccnc1"
  units of measure: "nM"
  Ki: 445
- record smiles: "Cc1ccc(CCOc2cccc(C(=O)N[C@@H](CCCNC(=N)N)C(N)=O)c2)cc1"
  units of measure: "nM"
  Ki: 6150
- record smiles: "N=C(N)NCCC[C@H](NC(=O)c1ccc(NC(=O)CCC(=O)O)c(OCCc2ccc(Cl)cc2Cl)c1)C(N)=O"
  units of measure: "nM"
  Ki: 354
- record smiles: "COc1ccc(C(=O)N[C@@H](CCCNC(=N)N)C(=O)N(C)C)cc1OCCc1ccc(Cl)cc1Cl"
  units of measure: "nM"
  Ki: 560
- record smiles: "N=C(N)NCCC[C@H](NC(=O)c1cccc(OCCc2ccc(Cl)cc2)c1)C(N)=O"
  units of measure: "nM"
  Ki: 1100

Please examine the following record next.
GET /values?readout=Ki&item= `N=C(N)NCCC[C@H](NC(=O)c1cc(O)c(Br)c(OCCc2ccc(Cl)cc2Cl)c1)C(=O)O`
59

====

system under test: factor VIIa/tissue factor (Homo sapiens, UniProt P08709)
Construct: 25 μl human factor VIIa and TF (5 nM and 10 nM, respective final concentrations)
method summary: Factor VIIa assay (chromogenic, substrate S-2288)
Type: biochemical
protocol conditions: inhibition constant for inhibition of factor VIIa; 5 nM factor VIIa and 10 nM TF, 25° C., 500 μM substrate; read-out: Ki (FVIIa)
Listed here are compounds together with their documented Ki.

- record smiles: "N=C(N)NCCC[C@H](NC(=O)c1cc(O)c(Br)c(OCCc2ccc(Cl)cc2Cl)c1)C(=O)O"
  result: "> 200 µM"
- record smiles: "CN(C)C(=O)[C@H](CCCNC(=N)N)NC(=O)c1cc(O)c(Br)c(OCCc2ccc(Cl)cc2Cl)c1"
  result: "> 200 µM"
- record smiles: "CCCOC(=O)[C@H](CCCNC(=N)N)NC(=O)c1ccc(OC)c(OCCc2ccc(Cl)cc2Cl)c1"
  result: "> 200 µM"

Could you tell me which Ki is on file for `N=C(N)NCCC[C@H](NC(=O)c1cc(O)c(Br)c(OCCc2ccc(Cl)cc2Cl)c1)C(=O)NCc1cccnc1` ?
> 200 µM
